Test system: Wnt5a (protein binding on small-molecule microarray)
Assay: Wnt5a binders on small-molecule microarray, primary screen, biophysical, 635/667 nm fluorescence (AID 1142);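 further: fluorescence read at 667 nm with signal to noise per printed feature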
Details: 635 nm fluorescence, higher = more signal
Classify by measured composite z-score: satisfied if it is equal to or exceeds 0.2, not satisfied if it is smaller.

smiles.str: C=C(CCCC)C(=O)CC[C@@H](OC(=O)c1ccccc1-c1ccccc1C(=O)O)c1ccc(OCCO)cc1
classification: satisfied
//
smiles.str: COc1ccc(CCNC(=O)[C@@H]2c3ccccc3C(=O)N(Cc3ccccc3Cl)[C@H]2c2ccc(CO)cc2)cc1
classification: not satisfied
//
smiles.str: COCCCNC(=O)[C@@H]1c2ccccc2C(=O)N(Cc2ccccc2Cl)[C@H]1c1ccc(CO)cc1
classification: not satisfied
//
smiles.str: C=C[C@H](CO)NS(=O)(=O)c1ccc(Br)cc1
classification: not satisfied
//
smiles.str: C=CCOC(=O)[C@H]1[C@@H]2C(=O)O[C@@H](c3ccccc3)[C@@H](c3ccccc3)N2[C@@H](c2ccc(OCCOC(=O)[C@H]3C[C@H]4C(=O)N[C@@H](CCCCN(C)C)C(=O)N4[C@H]3c3ccc(O)cc3)cc2)[C@]12C(=O)Nc1ccc(I)cc12
classification: not satisfied
//
smiles.str: C[N+](C)(C)CCCCNC(=O)[C@@H]1C[C@@H]2C(=O)N[C@@H](Cc3ccccc3)C(=O)N2[C@@H]1c1cccc(OCCO)c1
classification: not satisfied
//
smiles.str: COC(=O)[C@]1(CCC(=O)OC(C)(C)C)N=C(c2ccc(OCCCO)cc2)O[C@@H]1c1ccccc1CN=[N+]=[N-]
classification: satisfied

Just for reference, PubChem BioAssay is where these values come from.
